system: UACC-62; test: NCI tumour cell line growth inhibition, 48 h
Active and inactive are the calls of the source. Rule as the data show it: active = GI50 up to about 1.1 µM and inactive = higher.
experimental endpoint: GI50

Query :: Look up and report GI50, with UACC-62 as system, for CCOC(=O)CSc1cc[nH]c(=O)n1
Result :: > 100 µM (inactive)

Query :: Look up and report GI50, with UACC-62 as system, for CS(=O)(=O)c1ccc(C(=O)O[C@@H]2C(=O)N3CC[C@H]4OC(O)[C@@H]2[C@H]43)cc1 (some centres undefined)
Result :: > 100 µM (inactive)

Query :: Look up and report GI50, with UACC-62 as system, for C=C(C)C(O)C(O)C[C@@H](C)C1CC[C@]23C[C@]12CCC1[C@@]2(C)CCC(OC(C)=O)C(C)(C)C2CC(OC2OC(CO)C(O)C(O)C2O)[C@]13C (some centres undefined)
Result :: 17.7 µM (inactive)

Query :: Look up and report GI50, with UACC-62 as system, for COc1ccc([C@]23CCN(S(=O)(=O)c4ccc(C)cc4)[C@H]2[C@H](CO)C2(CC3)OCC(C)(C)CO2)cc1OC
Result :: > 100 µM (inactive)

Query :: Look up and report GI50, with UACC-62 as system, for Cc1nc(-c2nc([N+](=O)[O-])c([N+](=O)[O-])[nH]2)cs1
Result :: > 100 µM (inactive)

Query :: Look up and report GI50, with UACC-62 as system, for COc1cc(NC(C)=O)ccc1C(=O)N/N=C/c1ccco1
Result :: > 100 µM (inactive)

Query :: Look up and report GI50, with UACC-62 as system, for CN1N=C(c2ccncc2)OC1c1cccc(F)c1 (centres undefined)
Result :: > 100 µM (inactive)

Query :: Look up and report GI50, with UACC-62 as system, for O=c1oc2c/c(=C\c3ccc([N+](=O)[O-])cc3)c(=O)c3cccc1c3-2
Result :: > 100 µM (inactive)

Query :: Look up and report GI50, with UACC-62 as system, for Nc1ncnc2c1ncn2CC(O)CO (centres undefined)
Result :: > 100 µM (inactive)

====

Hi there, I'd appreciate the recorded GI50 for every entry that follows.
system: SF-539; test: NCI tumour cell line growth inhibition, 48 h
The source made the active and inactive calls. Rule as the data show it: active = GI50 up to about 1.1 µM and inactive = higher.

Query :: Please report the measured GI50 for O=C(Nc1ccccc1)N(C1=NCC(CI)S1)c1ccc(F)cc1F (stereo not given)
Result :: 59.3 µM (inactive)

Query :: Please report the measured GI50 for Cc1cc(NS(=O)(=O)c2ccc(NO)cc2)no1
Result :: 35.1 µM (inactive)

Query :: Please report the measured GI50 for Brc1cccc(C2(CCCC3(c4cccc(Br)n4)OCCO3)OCCO2)n1
Result :: 39.2 µM (inactive)

Query :: Please report the measured GI50 for OCCc1ccsc1-c1sc(-c2cc(CCO)c(-c3sc(-c4cc(CCO)c(-c5sccc5CCO)s4)cc3CCO)s2)cc1CCO
Result :: 1.44 µM (inactive)

Query :: Please report the measured GI50 for COCC1N=C(c2ccc(OC)c(OCc3ccccc3)c2OC)O[C@H]1c1ccccc1 (stereo not given in full)
Result :: 17.4 µM (inactive)

====

test system: DU-145; assay: NCI tumour cell line growth inhibition, 48 h
Calls of active or inactive are those of the source. No stated cut-off is given here; in the data, active = GI50 up to about 1.1 µM and inactive = higher. Square brackets hold non-standard residues; d marks the D form. Peptide text beside a SMILES is read from it. * marks the point of attachment. ξ: configuration not given here. NMeN = CN[C@@H](CC(N)=O)C(=O)O; NMeV = CN[C@H](C(=O)O)C(C)C; ξNMeV = CNC(C(=O)O)C(C)C; Boc = CC(C)(C)OC(=O)*; ξNMeA = CNC(C)C(=O)O
Hi there, I'd appreciate the recorded GI50 for every entry that follows.

Query :: Please report the measured GI50 for O=C1Oc2ccccc2C(=O)/C1=C1/C=C(c2ccccc2)SS1
Result :: 85.5 µM (inactive)

Query :: Please report the measured GI50 for O=C1C=CC(O)(C#CCO)C=C1
Result :: 16 µM (inactive)

Query :: Please report the measured GI50 for O=C(CC(=O)N1N=C(N2CCCCC2)CC1c1ccccc1)Nc1ccc(Cl)cc1 (centres undefined)
Result :: > 100 µM (inactive)

Query :: Please report the measured GI50 for CC1(C)[C@@H]2CC[C@]1(C)[C@H](OC(=O)CSC#N)C2
Result :: > 100 µM (inactive)

Query :: Please report the measured GI50 for CC1CN=C(Nc2ccc(F)c(Cl)c2)S1 (centres undefined)
Result :: > 100 µM (inactive)

Query :: Please report the measured GI50 for N=C1N(c2ccccc2)C(=S)/C(=N/c2ccccc2)N1c1ccccc1
Result :: 17.4 µM (inactive)

Query :: Please report the measured GI50 for Cn1c2c(c3ccccc31)CC(=O)N1CCCC(C1)CC21OCCO1 (centres undefined)
Result :: > 100 µM (inactive)

Query :: Please report the measured GI50 for CC(C)(C)OC(=O)NCC(=O)N(CCc1ccc(Cl)c(Cl)c1)CCN1CCCC1
Result :: 16.9 µM (inactive)

Query :: Please report the measured GI50 for COC(=O)C(C)N(C)C(=O)[C@H](CC(N)=O)N(C)C(=O)[C@@H]1CCCN1C(=O)[C@H](C(C)C)N(C)C(=O)C(C(C)C)N(C)C(=O)[C@@H](NC(=O)OC(C)(C)C)C(C)C (some centres undefined) (Boc-V[ξNMeV][NMeV]P[NMeN][ξNMeA]-OMe)
Result :: > 50 µM (inactive)

Source of measurements: ChEMBL document CHEMBL1201862
